# Tested on: Caco-2 monolayer
# assay.notes: Caco-2 transport assay
# Assay type: in vitro ADME, human
# condition.context: assessment of permeability and transport type
readout.label: Transport

Known results for molecules:
Name the recorded Transport for NCc1c(-c2ccc(Cl)cc2Cl)ncn1Cc1ccsc1 [Example 130b] . good, passive

May I ask what Transport has been recorded for NCc1c(-c2ccc(Cl)cc2Cl)ncn1Cc1ccccc1F [Example 112b] ? good, passive

Transport for COc1ccccc1Cn1cnc(-c2ccc(Cl)cc2Cl)c1CN [Example 120b] ? good, passive

What measured Transport goes with NCc1c(-c2ccc(Cl)cc2Cl)ncn1Cc1ccccc1 [Example 24b] ? good, passive

Entry CCOc1ccccc1Cn1cnc(-c2ccc(Cl)cc2Cl)c1CN [Example 128b] has what Transport? good, active in

More entries:
Query: Transport; subject: NCc1c(-c2ccc(Cl)cc2Cl)ncn1Cc1cccnc1 [Example 121b] good, passive

====

# Tested on: liver cell carcinoma cell line Hep-G2
# assay.notes: Cytotoxicity screening and LD50 determination on Hep-G2 (LDH, CytoTox-One)
# Format: cell-based
# condition.context: 8 serial dilutions, highest concentration 1 mM
Reported LD50 Viability HEP-G2 values follow for various molecules
Number only, in mM; omit the unit.

I would be grateful if you could share the reported LD50 Viability HEP-G2 for NCc1c(-c2ccc(Cl)cc2Cl)ncn1Cc1cccnc1 [Example 121b] . 1.05

Data request, read-out LD50 Viability HEP-G2, for NCc1c(-c2ccc(Cl)cc2Cl)ncn1Cc1ccsc1 [Example 130b] 0.24

For the molecule NCc1c(-c2ccc(Cl)cc2Cl)ncn1Cc1ccccc1Cl [Example 81b] , what LD50 Viability HEP-G2 is on record? 0.14

Give the measured LD50 Viability HEP-G2 of NCc1c(-c2ccc(Cl)cc2Cl)ncn1Cc1ccccn1 [Example 39b] . 0.80

Query: LD50 Viability HEP-G2; subject: COc1ccccc1Cn1cnc(-c2ccc(Cl)cc2Cl)c1CN [Example 120b] 0.21

Find the recorded LD50 Viability HEP-G2 belonging to CCOc1ccccc1Cn1cnc(-c2ccc(Cl)cc2Cl)c1CN [Example 128b] and report it. 0.15

Entry NCc1c(-c2ccc(Cl)cc2Cl)ncn1Cc1ccccc1OC(F)(F)F [Example 129b] : reported LD50 Viability HEP-G2 = ? 0.15

Alright, here's another molecule for you.
Which LD50 Viability HEP-G2 reading was recorded for the molecule NCc1c(-c2ccc(Cl)cc2Cl)ncn1Cc1ccccc1 [Example 24b] ? 0.20

====

# System: liver cell carcinoma cell line Hep-G2
# assay.notes: Cytotoxicity screening and LD50 determination on Hep-G2 (LDH, CytoTox-One)
# Type: cell-based
# condition.context: 100 μM, 24 h, LDH of lysed cells, untreated control = 100%
readout.label: Viability 100 μM (%) HEP-G2
State just the number; it will be interpreted in %.

Use these answered entries as a reference point.
// lookup Viability 100 μM (%) HEP-G2 for NCc1c(-c2ccc(Cl)cc2Cl)ncn1Cc1ccc2c(c1)OCO2 [Example 125b] 88.9

GET /values?readout=Viability 100 μM (%) HEP-G2&item= NCc1c(-c2ccc(Cl)cc2Cl)ncn1Cc1ccccc1F [Example 112b] 111.4

Others:
// returns reported Viability 100 μM (%) HEP-G2 for input NCc1c(-c2ccc(Cl)cc2Cl)ncn1CCCCCO [Example 38b] 106.7
